# tested.target: Epidermal growth factor receptor (Homo sapiens)
# experiment.summary: Evaluation of inhibitory activity against phospholipase C-gamma1 phosphorylation by Epidermal growth factor receptor enzyme isolated from A431 cells.
pIC50: −log10 of the molar value.
Decide using pIC50: a value greater than or equal to 6 is Yes, a smaller one is No.

Worked examples follow.
{"columns": ["structure.smiles", "answer.label"],
 "data": [
  ["Nc1cccc2ncnc(Nc3cccc(Br)c3)c12", "Yes"],
  ["COc1cc2c(NCc3ccccc3)ncnc2cc1O", "Yes"]
]}

Prompt line: Confirm if pIC50 reported for the compound COc1ccc2ncnc(Nc3cccc(Br)c3)c2c1 is 6 or above.
Response line: Yes

Prompt line: Threshold query (pIC50 >= 6) on Nc1cc2ncnc(Nc3cccc(Br)c3)c2cc1N
Response line: Yes

Prompt line: Does the compound Brc1cccc(Nc2cnc3ccccc3n2)c1 have recorded pIC50 that is 6 or more?
Response line: No

Prompt line: Is the recorded value of pIC50 equal to or greater than 6 for this compound? O=[N+]([O-])c1ccc2ncnc(NCc3ccccc3)c2c1
Response line: No

Prompt line: Assess whether reported pIC50 for COc1ccc2ncnc(NCc3ccccc3)c2c1 sits at 6 or higher.
Response line: Yes

Prompt line: Exam item: decide whether the reported pIC50 for COc1ccc2c(NCc3ccccc3)ncnc2c1 is at least 6.
Response line: Yes

Prompt line: Would you say Ic1cccc(Nc2ncnc3ccccc23)c1 shows pIC50 at minimum 6?
Response line: Yes

Prompt line: Would you say Brc1cccc(Nc2nnnc3ccccc23)c1 shows pIC50 at minimum 6?
Response line: No

Prompt line: Please indicate if the recorded pIC50 for Brc1cccc(Nc2cnnc3ccccc23)c1 meets or exceeds 6.
Response line: No

Prompt line: In plain terms: is recorded pIC50 at least 6 for FC(F)(F)c1cccc(Nc2ncnc3ccccc23)c1 ?
Response line: Yes

Prompt line: Dear colleague, could you confirm whether Brc1cccc(Nc2nccc3ccccc23)c1 has pIC50 at or above 6?
Response line: No

Prompt line: Decide: pIC50 of Clc1cccc(Nc2ncnc3ccccc23)c1 >= 6?
Response line: Yes

Prompt line: Is pIC50 for COc1cccc2c(NCc3ccccc3)ncnc12 at or above 6?
Response line: No

Prompt line: Evaluate Nc1cccc2ncnc(NCc3ccccc3)c12 : pIC50 at minimum 6?
Response line: No

Prompt line: Please check the record Clc1ccc(CNc2ncnc3ccccc23)cc1 and state if its pIC50 is at or above 6.
Response line: No

Prompt line: Does the reported pIC50 for Brc1cccc(Nc2nncc3ccccc23)c1 fall at or above the 6 mark?
Response line: No

Prompt line: In plain terms: is recorded pIC50 at least 6 for COc1ccc2c(Nc3cccc(Br)c3)ncnc2c1 ?
Response line: Yes

Prompt line: Identify whether the reported pIC50 of the following compound is 6 or greater: COc1cc2ncnc(NCc3ccccc3)c2cc1OC
Response line: Yes

###

# tested.target: Epidermal growth factor receptor (Homo sapiens, UniProt P00533)
# Sequence (P00533 whole entry): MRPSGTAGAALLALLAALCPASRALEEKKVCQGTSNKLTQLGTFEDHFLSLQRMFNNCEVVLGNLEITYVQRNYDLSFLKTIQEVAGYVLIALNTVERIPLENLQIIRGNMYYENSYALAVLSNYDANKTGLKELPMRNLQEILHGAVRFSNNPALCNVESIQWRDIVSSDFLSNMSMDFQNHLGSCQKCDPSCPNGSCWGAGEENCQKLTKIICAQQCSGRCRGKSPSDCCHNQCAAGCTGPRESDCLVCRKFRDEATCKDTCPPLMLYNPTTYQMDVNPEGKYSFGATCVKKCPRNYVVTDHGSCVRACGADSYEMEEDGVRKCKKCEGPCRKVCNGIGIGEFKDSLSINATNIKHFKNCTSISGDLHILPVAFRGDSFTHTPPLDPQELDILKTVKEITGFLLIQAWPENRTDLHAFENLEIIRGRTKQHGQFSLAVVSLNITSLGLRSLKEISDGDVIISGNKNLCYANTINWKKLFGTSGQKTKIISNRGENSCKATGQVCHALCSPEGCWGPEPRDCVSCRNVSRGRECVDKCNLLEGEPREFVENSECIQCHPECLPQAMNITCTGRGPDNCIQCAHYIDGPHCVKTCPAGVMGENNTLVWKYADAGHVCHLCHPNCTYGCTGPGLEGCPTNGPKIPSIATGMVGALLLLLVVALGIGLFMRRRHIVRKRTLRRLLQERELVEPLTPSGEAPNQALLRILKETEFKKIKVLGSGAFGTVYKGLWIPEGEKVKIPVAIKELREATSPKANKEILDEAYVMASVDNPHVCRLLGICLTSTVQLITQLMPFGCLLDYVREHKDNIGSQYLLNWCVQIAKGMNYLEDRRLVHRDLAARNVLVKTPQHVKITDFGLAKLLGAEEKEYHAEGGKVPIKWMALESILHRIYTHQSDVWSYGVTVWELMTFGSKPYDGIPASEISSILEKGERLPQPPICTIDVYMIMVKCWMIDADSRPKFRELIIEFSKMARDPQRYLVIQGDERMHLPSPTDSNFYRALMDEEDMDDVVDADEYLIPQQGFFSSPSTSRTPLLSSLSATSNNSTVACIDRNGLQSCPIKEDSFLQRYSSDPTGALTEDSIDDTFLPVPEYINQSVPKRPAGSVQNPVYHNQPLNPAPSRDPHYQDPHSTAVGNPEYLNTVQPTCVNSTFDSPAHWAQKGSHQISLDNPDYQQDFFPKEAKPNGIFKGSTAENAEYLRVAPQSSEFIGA
# experiment.summary: Evaluation of inhibitory activity against phospholipase C-gamma1 phosphorylation by Epidermal growth factor receptor enzyme isolated from A431 cells.
pIC50: −log10 of the molar value.
Entry flag: TRUE if pIC50 reaches 6; FALSE if it does not.

Prompt line: Determine whether measured pIC50 meets or exceeds 6 for COc1cc2ncnc(NCc3ccccc3)c2cc1O
Response line: TRUE

Prompt line: Is it the case that Brc1cccc(Nc2ccnc3ccccc23)c1 has pIC50 reaching or exceeding 6?
Response line: FALSE

Prompt line: Given the entry c1ccc(CCNc2ncnc3ccccc23)cc1 , answer whether its pIC50 meets or surpasses 6.
Response line: FALSE

Prompt line: Is reported pIC50 greater than or equal to 6 here: COc1cccc2ncnc(NCc3ccccc3)c12
Response line: FALSE

Prompt line: For this compound, is measured pIC50 6 or higher? O=[N+]([O-])c1cccc2ncnc(NCc3ccccc3)c12
Response line: FALSE

Entry source: ChEMBL document CHEMBL1128536
